Source listed as paper PMC9482650.

Target: T1, DLG3_3, Q92796
T1 sequence (Q92796 374-475, limits assumed, looked up): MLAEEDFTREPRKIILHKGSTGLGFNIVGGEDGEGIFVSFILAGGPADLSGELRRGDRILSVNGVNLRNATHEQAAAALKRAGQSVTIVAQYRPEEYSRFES
Assay: holdup assay
Design: key: below the threshold = too weak to quantify, mostly under pKd 3.1 to 4
Conditions: plain residues with an end cap or a label only (N-terminal biotin on a linker: ttds)
# label = t if pKd >= 4 else f

# count of solved cases: 5
binder	class
SSRTRRETQL [HPV16-E6, P03126]	t
SRPQRTQTQV [HPV67-E6, A4U7F2]	t
TVASEKESVM [SLC1A5, Q15758]	f
RSLEEEESQL [GRASP, Q7Z6J2]	f
VLRLQSETSV [VANGL1, Q8TAA9]	t

With those in mind, consider the next binder.
Check if pKd >= 4 (inclusive). Item: ERKLSSESQV [LRP4, O75096]
f
